Tested on: 873145-292-R-J1-PDC complex spheroid viability
Assay details: Anticancer human tumor 873145-292-R-J1-PDC patient-derived renal clear cell carcinoma cell line growth inhibition [POLQ]
Condition label: second compound 0.1 µM; first compound 0.0316 µM; stronger effect = lower value
In this section we review reported viability, T/C values for a set of compounds.

- Compound: "CCc1c2c(nc3ccc(O)cc13)-c1cc3c(c(=O)n1C2)COC(=O)[C@]3(O)CC + Nc1ccc(C#CCN(C(=O)Cc2ncc(C(F)(F)F)cc2C(F)(F)F)c2ccc(F)cc2)nn1"
  viability, T/C / %: 60
- Compound: "CC1COCCN1c1cc(-c2ccnn2C)c2ccnc(-c3ccn[nH]3)c2n1 (stereo not drawn) + COC1C(OC(N)=O)C(O)C(Oc2ccc3c(O)c(NC(=O)c4ccc(O)c(CC=C(C)C)c4)c(=O)oc3c2C)OC1(C)C"
  viability, T/C / %: 94.1
- Compound: "CC(C)n1c(=O)n(C)c2cnc3cc(F)c(-c4ccc(OCCCN5CCCCC5)nc4)cc3c21 + COC1C(OC(N)=O)C(O)C(Oc2ccc3c(O)c(NC(=O)c4ccc(O)c(CC=C(C)C)c4)c(=O)oc3c2C)OC1(C)C"
  viability, T/C / %: 94

* * *

IC50 listing for selected compounds.
Tested on: 873145-292-R-J1-PDC complex spheroid viability
Assay details: Anticancer human tumor 873145-292-R-J1-PDC cell line growth inhibition [POLQ];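 also: spheroids exposed to compounds for 7 days before viability readout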
Condition label: curve of first compound; second compound 1 µM

- Compound: "C=CC(=O)N1CCN(c2nc(=O)n(-c3c(C)ccnc3C(C)C)c3nc(-c4c(O)cccc4F)c(F)cc23)C(C)C1 (stereo not drawn) + Cc1cccc(N(C)C(=O)C2C(O)CCN2c2nc(C)cc(C(F)(F)F)c2C#N)c1"
  IC50: "> 10 µM"
- Compound: "O=C(Nc1ccc(O)c(NS(=O)(=O)c2ccc(F)cc2)c1)c1ccc(-c2ccccc2)cc1 + COC1C(OC(N)=O)C(O)C(Oc2ccc3c(O)c(NC(=O)c4ccc(O)c(CC=C(C)C)c4)c(=O)oc3c2C)OC1(C)C"
  IC50: "> 10 µM"
- Compound: "COc1ccc([C@@H](O)c2cc(-c3ncnc4cc(N5CCOCC5)ccc34)c(F)cc2Cl)nn1 + Cc1cccc(N(C)C(=O)C2C(O)CCN2c2nc(C)cc(C(F)(F)F)c2C#N)c1"
  IC50: "6.45 µM"

* * *

Recorded viability, T/C values for a group of compounds are listed next.
Tested on: 873145-292-R-J1-PDC complex spheroid viability
Assay details: Anticancer human tumor 873145-292-R-J1-PDC cell line growth inhibition [POLQ];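 also: spheroids exposed to compounds for 7 days before viability readout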;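 as to viability, T/C: luminescence signal used as surrogate for viable cell content; 100% = DMSO vehicle control viability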
Condition label: second compound 10 µM; first compound 0.316 µM; stronger effect = lower value
Measured property: viability, T/C

- Compound: "CC(C)n1c(=O)n(C)c2cnc3cc(F)c(-c4ccc(OCCCN5CCCCC5)nc4)cc3c21 + COC1C(OC(N)=O)C(O)C(Oc2ccc3c(O)c(NC(=O)c4ccc(O)c(CC=C(C)C)c4)c(=O)oc3c2C)OC1(C)C"
  Measured property: "viability, T/C"
  Result: "104%"
- Compound: "COc1cccc2c1C(=O)c1c(O)c3c(c(O)c1C2=O)CC(O)(C(=O)CO)CC3OC1CC(N)C(O)C(C)O1 (stereo not given) + Nc1ccc(C#CCN(C(=O)Cc2ncc(C(F)(F)F)cc2C(F)(F)F)c2ccc(F)cc2)nn1"
  Measured property: "viability, T/C"
  Result: "111%"
- Compound: "C#Cc1c(F)ccc2cc(O)cc(-c3ncc4c(N5CC6CCC(C5)N6)nc(OCC56CCCN5CC(F)C6)nc4c3F)c12 (stereo not given) + COC1C(OC(N)=O)C(O)C(Oc2ccc3c(O)c(NC(=O)c4ccc(O)c(CC=C(C)C)c4)c(=O)oc3c2C)OC1(C)C"
  Measured property: "viability, T/C"
  Result: "82.1%"
- Compound: "O=c1[nH]cc(F)c(=O)[nH]1 + COC1C(OC(N)=O)C(O)C(Oc2ccc3c(O)c(NC(=O)c4ccc(O)c(CC=C(C)C)c4)c(=O)oc3c2C)OC1(C)C"
  Measured property: "viability, T/C"
  Result: "92.5%"
- Compound: "COc1cccc(OCCCN)c1-c1cc(Nc2cnc(C#N)cn2)n[nH]1 + Nc1ccc(C#CCN(C(=O)Cc2ncc(C(F)(F)F)cc2C(F)(F)F)c2ccc(F)cc2)nn1"
  Measured property: "viability, T/C"
  Result: "69.1%"

* * *

Test system: 873145-292-R-J1-PDC complex spheroid viability
Assay details: Anticancer human tumor 873145-292-R-J1-PDC cell line growth inhibition [POLQ];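 also: spheroids exposed to compounds for 7 days before viability readout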;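 as to viability, T/C: luminescence signal used as surrogate for viable cell content; 100% = DMSO vehicle control viability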
Condition label: second compound 0.316 µM; first compound 1 µM; stronger effect = lower value

- Molecule: "CCc1cc2c(N3CCc4c(cc(Cn5ccnc5)cc4-c4cn(C)nc4C(F)(F)F)C3=O)cc(C)nc2c(OC)n1 + COC1C(OC(N)=O)C(O)C(Oc2ccc3c(O)c(NC(=O)c4ccc(O)c(CC=C(C)C)c4)c(=O)oc3c2C)OC1(C)C"
  viability, T/C: "90.8%"
- Molecule: "C#Cc1c(F)ccc2cc(O)cc(-c3ncc4c(N5CC6CCC(C5)N6)nc(OCC56CCCN5CC(F)C6)nc4c3F)c12 (stereo not given) + Cc1cccc(N(C)C(=O)C2C(O)CCN2c2nc(C)cc(C(F)(F)F)c2C#N)c1"
  viability, T/C: "92.1%"
- Molecule: "CCCS(=O)(=O)Nc1ccc(F)c(C(=O)c2c[nH]c3ncc(-c4ccc(Cl)cc4)cc23)c1F + COC1C(OC(N)=O)C(O)C(Oc2ccc3c(O)c(NC(=O)c4ccc(O)c(CC=C(C)C)c4)c(=O)oc3c2C)OC1(C)C"
  viability, T/C: "99.8%"
- Molecule: "CNCc1ccc(-c2[nH]c3cc(F)cc4c3c2CCNC4=O)cc1 + Nc1ccc(C#CCN(C(=O)Cc2ncc(C(F)(F)F)cc2C(F)(F)F)c2ccc(F)cc2)nn1"
  viability, T/C: "92.4%"
- Molecule: "CCc1c2c(nc3ccc(O)cc13)-c1cc3c(c(=O)n1C2)COC(=O)[C@]3(O)CC + Nc1ccc(C#CCN(C(=O)Cc2ncc(C(F)(F)F)cc2C(F)(F)F)c2ccc(F)cc2)nn1"
  viability, T/C: "28.9%"
- Molecule: "CCc1cc2c(N3CCc4c(cc(Cn5ccnc5)cc4-c4cn(C)nc4C(F)(F)F)C3=O)cc(C)nc2c(OC)n1 + Cc1cccc(N(C)C(=O)C2C(O)CCN2c2nc(C)cc(C(F)(F)F)c2C#N)c1"
  viability, T/C: "97.5%"
- Molecule: "C=CC(=O)N1CCN(c2nc(=O)n(-c3c(C)ccnc3C(C)C)c3nc(-c4c(O)cccc4F)c(F)cc23)C(C)C1 (stereo not given) + Nc1ccc(C#CCN(C(=O)Cc2ncc(C(F)(F)F)cc2C(F)(F)F)c2ccc(F)cc2)nn1"
  viability, T/C: "126%"
- Molecule: "C#Cc1c(F)ccc2cc(O)cc(-c3ncc4c(N5CC6CCC(C5)N6)nc(OCC56CCCN5CC(F)C6)nc4c3F)c12 (stereo not given) + COC1C(OC(N)=O)C(O)C(Oc2ccc3c(O)c(NC(=O)c4ccc(O)c(CC=C(C)C)c4)c(=O)oc3c2C)OC1(C)C"
  viability, T/C: "77.8%"
- Molecule: "CC1COCCN1c1cc(C2(O)CC3CCC(C2)O3)c2cnn(-c3ccn[nH]3)c2n1 (stereo not given) + Nc1ccc(C#CCN(C(=O)Cc2ncc(C(F)(F)F)cc2C(F)(F)F)c2ccc(F)cc2)nn1"
  viability, T/C: "50.4%"
- Molecule: "C=CC(=O)N1CCN(c2nc(=O)n(-c3c(C)ccnc3C(C)C)c3nc(-c4c(O)cccc4F)c(F)cc23)C(C)C1 (stereo not given) + Cc1cccc(N(C)C(=O)C2C(O)CCN2c2nc(C)cc(C(F)(F)F)c2C#N)c1"
  viability, T/C: "123%"
- Molecule: "CCc1cc2c(N3CCc4c(cc(Cn5ccnc5)cc4-c4cn(C)nc4C(F)(F)F)C3=O)ccnc2c(OC)n1 + COC1C(OC(N)=O)C(O)C(Oc2ccc3c(O)c(NC(=O)c4ccc(O)c(CC=C(C)C)c4)c(=O)oc3c2C)OC1(C)C"
  viability, T/C: "98.7%"
- Molecule: "O=C(c1cc(Cc2n[nH]c(=O)c3ccccc23)ccc1F)N1CCN(C(=O)C2CC2)CC1 + COC1C(OC(N)=O)C(O)C(Oc2ccc3c(O)c(NC(=O)c4ccc(O)c(CC=C(C)C)c4)c(=O)oc3c2C)OC1(C)C"
  viability, T/C: "90.8%"
- Molecule: "O=C(c1cc(Cc2n[nH]c(=O)c3ccccc23)ccc1F)N1CCN(C(=O)C2CC2)CC1 + Cc1cccc(N(C)C(=O)C2C(O)CCN2c2nc(C)cc(C(F)(F)F)c2C#N)c1"
  viability, T/C: "88.4%"
- Molecule: "O=C(Nc1ccc(O)c(NS(=O)(=O)c2ccc(F)cc2)c1)c1ccc(-c2ccccc2)cc1 + Nc1ccc(C#CCN(C(=O)Cc2ncc(C(F)(F)F)cc2C(F)(F)F)c2ccc(F)cc2)nn1"
  viability, T/C: "108%"
- Molecule: "COc1cc2cc(C(=O)CCC(=O)O)sc2cc1OC + Nc1ccc(C#CCN(C(=O)Cc2ncc(C(F)(F)F)cc2C(F)(F)F)c2ccc(F)cc2)nn1"
  viability, T/C: "99.3%"
- Molecule: "CC(C)n1c(=O)n(C)c2cnc3cc(F)c(-c4ccc(OCCCN5CCCCC5)nc4)cc3c21 + Nc1ccc(C#CCN(C(=O)Cc2ncc(C(F)(F)F)cc2C(F)(F)F)c2ccc(F)cc2)nn1"
  viability, T/C: "103%"
- Molecule: "COc1cccc(OCCCN)c1-c1cc(Nc2cnc(C#N)cn2)n[nH]1 + Nc1ccc(C#CCN(C(=O)Cc2ncc(C(F)(F)F)cc2C(F)(F)F)c2ccc(F)cc2)nn1"
  viability, T/C: "77.8%"
- Molecule: "CC1COCCN1c1cc(C2(O)CC3CCC(C2)O3)c2cnn(-c3ccn[nH]3)c2n1 (stereo not given) + Cc1cccc(N(C)C(=O)C2C(O)CCN2c2nc(C)cc(C(F)(F)F)c2C#N)c1"
  viability, T/C: "40.4%"
- Molecule: "CCc1cc2c(N3CCc4c(cc(Cn5ccnc5)cc4-c4cn(C)nc4C(F)(F)F)C3=O)ccnc2c(OC)n1 + Cc1cccc(N(C)C(=O)C2C(O)CCN2c2nc(C)cc(C(F)(F)F)c2C#N)c1"
  viability, T/C: "94.6%"
- Molecule: "CC1COCCN1c1cc(C2(S(C)(=N)=O)CC2)nc(-c2ccnc3[nH]ccc23)n1 (stereo not given) + Nc1ccc(C#CCN(C(=O)Cc2ncc(C(F)(F)F)cc2C(F)(F)F)c2ccc(F)cc2)nn1"
  viability, T/C: "92.3%"
